Target: Sting protein (Homo sapiens, UniProt Q86WV6, G230A/H232R/R293Q/R71H)
Construct: endogenous in cells; host or cells: THP1 cells (Shanghai Cell Bank)
Sequence (Q86WV6 whole entry R71H/G230A/H232R/R293Q): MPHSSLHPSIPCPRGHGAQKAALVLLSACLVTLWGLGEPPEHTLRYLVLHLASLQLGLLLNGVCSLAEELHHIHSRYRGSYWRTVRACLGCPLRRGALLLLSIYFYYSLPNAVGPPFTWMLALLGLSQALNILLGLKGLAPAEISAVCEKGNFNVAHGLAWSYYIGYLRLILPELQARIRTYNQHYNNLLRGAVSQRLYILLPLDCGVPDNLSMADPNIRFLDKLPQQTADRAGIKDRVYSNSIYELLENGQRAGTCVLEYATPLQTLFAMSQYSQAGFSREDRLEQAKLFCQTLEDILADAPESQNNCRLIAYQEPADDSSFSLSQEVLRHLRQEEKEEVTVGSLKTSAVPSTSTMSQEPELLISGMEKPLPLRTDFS
Experiment: Agonistic function test on Sting protein: IFN-β and CXCL10 (IP10) cytokines produced by THP1 cells (ELISA)
Type: cell-based
Details: 18 hours, ELISA of supernatant, read-out: IFN-β EC50
Experimental: In this experiment, the function of sting agonist was evaluated by detecting the changes of IFN-β and CXCL10 (IP10) cytokines produced by human peripheral blood mononuclear cell line THP1 cells (Shanghai Cell Bank) stimulated by the compounds. […] The OD450 value was read, and converted into IFN-β and IP10 concentration according to the standard curve, and fitted with GraphPad 5.0 to calculate the EC50 value of the dose-efficiency curve.
pEC50: −log10 of the molar value.
Provide the reported pEC50 of each item.

### Prompt Look up pEC50 for this molecule: "CCc1nc(C)sc1C(=O)Nc1nc2cc(C(N)=O)cc(OC)c2n1C/C=C/Cn1c(NC(=O)c2cc(C)nn2CC)nc2cc(C(N)=O)cc(OCCCN3CCOCC3)c21"
### Response 7.00 to 8.00

### Prompt Next molecule up: "CCc1nc(C)sc1C(=O)Nc1nc2cc(C(N)=O)cc(SC)c2n1C/C=C/Cn1c(NC(=O)c2cc(C)nn2CC)nc2cc(C(N)=O)cc(OCCCN3CCOCC3)c21"
### Response 7.00 to 8.00

### Prompt Next record, please: "CCc1nc(C)sc1C(=O)Nc1nc2cc(C(N)=O)cc(OCCCN3CCN(C(C)=O)CC3)c2n1C/C=C/Cn1c(NC(=O)c2cc(C)nn2CC)nc2cc(C(N)=O)cc(SC)c21"
### Response 7.00 to 8.00

====

Biological target: Sting protein (Homo sapiens, UniProt Q86WV6, G230A/H232R/R293Q/R71H)
Construct: endogenous in cells; host or cells: THP1 cells (Shanghai Cell Bank)
Test: Agonistic function test on Sting protein: IFN-β and CXCL10 (IP10) cytokines produced by THP1 cells (ELISA)
Format: cell-based
Conditions: 18 hours, ELISA of supernatant, read-out: IP10 EC50
observable: EC50

### Prompt Quick one: EC50 of "CCn1nc(C)c(F)c1C(=O)Nc1nc2cc(C(N)=O)cc(OCCCN3CCOCC3)c2n1C/C=C/Cn1c(NC(=O)c2c(F)c(C)nn2CC)nc2cc(C(N)=O)cc(SC)c21" ?
### Response < 10 nM

### Prompt Moving on to "CCc1nc(C)sc1C(=O)Nc1nc2cc(C(N)=O)cc(SC)c2n1C/C=C/Cn1c(NC(=O)c2cc(C)nn2CC)nc2cc(C(N)=O)cc(OCCCN3CCN(C(C)C)CC3)c21"
### Response 10 to 100 nM

### Prompt Try "CCn1nc(C)cc1C(=O)Nc1nc2cc(C(N)=O)cc(SC)c2n1C/C=C/Cn1c(NC(=O)c2c(F)c(C)nn2CC)nc2cc(C(N)=O)cc(OCCCN3CCOCC3)c21" next.
### Response < 10 nM

====

Target: Sting protein (Homo sapiens, UniProt Q86WV6, G230A/H232R/R293Q/R71H)
Construct: endogenous in cells; host or cells: THP1 cells (Shanghai Cell Bank)
Experiment: Agonistic function test on Sting protein: IFN-β and CXCL10 (IP10) cytokines produced by THP1 cells (ELISA)
Type: cell-based
Settings: 18 hours, ELISA of supernatant, read-out: IP10 EC50
observable: EC50

### Prompt I have this compound here, "CCc1nc(C)sc1C(=O)Nc1nc2cc(C(N)=O)cc(OCCCN3CCN(C(C)=O)CC3)c2n1C/C=C/Cn1c(NC(=O)c2cc(C)nn2CC)nc2cc(C(N)=O)cc(SC)c21" , and I need its recorded EC50.
### Response 0.01 to 0.1 µM

### Prompt How about "CCc1nc(C)sc1C(=O)Nc1nc2cc(C(N)=O)cc(OCCCN3CCOCC3)c2n1C/C=C/Cn1c(NC(=O)c2c(F)c(C)nn2CC)nc2cc(C(N)=O)cc(SC)c21" ?
### Response < 0.01 µM

### Prompt What do you get for "CCc1nc(C)sc1C(=O)Nc1nc2cc(C(N)=O)cc(OCCCN3CCN(C4CC4)CC3)c2n1C/C=C/Cn1c(NC(=O)c2cc(C)nn2CC)nc2cc(C(N)=O)cc(OC)c21" ?
### Response 0.01 to 0.1 µM

### Prompt Another compound to check: "CCc1nc(C)sc1C(=O)Nc1nc2cc(C(N)=O)cc(OC)c2n1C/C=C/Cn1c(NC(=O)c2cc(C)nn2CC)nc2cc(C(N)=O)cc(OCCCN3CCN(C(C)=O)CC3)c21"
### Response 0.01 to 0.1 µM

### Prompt How about "CCc1nc(C)sc1C(=O)Nc1nc2cc(C(N)=O)cc(OCCCN3CCN(C(C)=O)CC3)c2n1C/C=C/Cn1c(NC(=O)c2cc(C)nn2CC)nc2cc(C(N)=O)cc(OC)c21" ?
### Response 0.01 to 0.1 µM
